Recorded values, source patent US11964953B2.

System: human DGKζ (Homo sapiens (Human), UniProt Q13574)
Sequence (Q13574 other isoform, or with tags, fused parts or gaps): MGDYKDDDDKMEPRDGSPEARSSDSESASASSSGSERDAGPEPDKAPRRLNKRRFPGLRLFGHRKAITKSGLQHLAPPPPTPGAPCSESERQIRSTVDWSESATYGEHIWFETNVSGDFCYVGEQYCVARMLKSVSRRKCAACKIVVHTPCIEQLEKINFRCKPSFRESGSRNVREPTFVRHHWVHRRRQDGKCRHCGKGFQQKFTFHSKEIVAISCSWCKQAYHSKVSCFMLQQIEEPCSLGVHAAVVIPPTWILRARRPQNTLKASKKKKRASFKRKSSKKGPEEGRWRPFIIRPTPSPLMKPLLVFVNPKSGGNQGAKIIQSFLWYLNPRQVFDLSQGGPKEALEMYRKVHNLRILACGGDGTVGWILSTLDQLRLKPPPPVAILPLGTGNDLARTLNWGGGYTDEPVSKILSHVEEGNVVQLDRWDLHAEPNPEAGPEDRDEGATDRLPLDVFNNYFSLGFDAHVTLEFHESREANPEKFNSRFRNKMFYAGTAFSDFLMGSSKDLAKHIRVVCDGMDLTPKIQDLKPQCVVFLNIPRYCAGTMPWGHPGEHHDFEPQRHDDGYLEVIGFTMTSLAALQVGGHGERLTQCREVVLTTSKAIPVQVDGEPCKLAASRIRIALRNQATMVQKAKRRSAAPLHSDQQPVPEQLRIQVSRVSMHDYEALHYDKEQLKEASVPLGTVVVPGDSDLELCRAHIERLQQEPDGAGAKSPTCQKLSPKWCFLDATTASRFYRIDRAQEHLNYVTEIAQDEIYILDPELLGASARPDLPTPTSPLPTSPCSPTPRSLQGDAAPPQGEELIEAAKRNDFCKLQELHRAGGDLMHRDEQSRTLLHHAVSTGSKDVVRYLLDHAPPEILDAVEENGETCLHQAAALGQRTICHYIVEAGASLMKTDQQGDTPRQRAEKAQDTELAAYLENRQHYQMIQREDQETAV
Protocol summary: Human DGKζ kinase activity inhibition assay (ADP-Glo)
Format: biochemical
Conditions used: in vitro human DGKζ kinase activity inhibition assay; read-out: IC50
pIC50: −log10 of the molar value.
Assay endpoint: pIC50

Below, 3 molecules whose answers are already recorded.
CC(C(N)=O)N(c1ccc(F)cc1)c1nc(N)c(C(=O)c2ccc(OCC(=O)N3CCN(C)CC3)cc2)s1 (racemic) [Example 86] = 6.12
CC(C(N)=O)N(c1nc(N)c(C(=O)c2ccccc2)s1)c1ccc(F)cc1F (racemic) [Example 65] = 7.00
CC(C(N)=O)N(c1ccc(OC(F)(F)F)c(F)c1)c1nc(N)c(C(=O)c2ccc(OC(F)F)nc2)s1 (racemic) [Example 221] = 7.51

[A] COc1ccc(C(=O)c2sc(N(c3ccc(OC(F)F)c(Cl)c3)C(C)C(N)=O)nc2N)cc1 (racemic) [Example 200]
[B] CC(C(N)=O)N(c1nc(N)c(C(=O)c2ccccc2)s1)c1ccc(OC(F)(F)F)cc1Cl (racemic) [Example 240]
[C] CC(C(N)=O)N(c1ccc(F)cc1)c1nc(N)c(C(=O)c2ccc(OCc3ccccc3)cc2)s1 (racemic) [Example 158]
[D] CC(C(N)=O)N(c1ccc(C(F)F)cc1)c1nc(N)c(C(=O)c2ccncc2)s1 (racemic) [Example 246]
Data request: Ascending by pIC50, please. Please list the labels according to the requested order.
Data returned: B, D, A, C
(B: 5.88, D: 6.18, A: 7.15, C: 8.17)

[I] Cc1ccc(N(c2nc(N)c(C(=O)c3ccccc3)s2)C(C)C(N)=O)cc1 (single isomer, unassigned) [Example 73.2]
[II] CC(C(N)=O)N(c1nc(N)c(C(=O)c2ccc(OC(F)F)cc2)s1)c1ccc(Cl)cc1F (single isomer, unassigned) [Example 46.1]
[III] Cc1nc(N(c2ccc(F)c(F)c2)C(C)C(N)=O)sc1C(=O)c1ccc(OC(F)F)cc1 (single isomer, unassigned) [Example 55.2]
[IV] COc1ccc(C(=O)c2sc(N(c3ccc(F)cc3)C(C)C(N)=O)nc2N)cn1 (racemic) [Example 14]
[V] CC(C(N)=O)N(c1ccc(F)cc1)c1nc(N)c(C(=O)c2ccc(OCC(=O)Nc3ncnc4[nH]ncc34)cc2)s1 (racemic) [Example 131]
Data request: # sort list by recorded pIC50, greatest to least Give the order by naming the labels one after another as requested.
Data returned: I, V, IV, III, II

[I] CC(C(N)=O)N(c1ccc(C(F)(F)F)cc1)c1nc(N)c(C(=O)c2ccc(OC(F)F)cc2)s1 (single isomer, unassigned) [Example 43.2]
[II] COc1ccc(C(=O)c2sc(N(c3ccc4c(c3)OC(F)(F)O4)C(C)C(N)=O)nc2N)cc1 (racemic) [Example 212]
Data request: Hi! Which is lower in terms of pIC50, the first one I or the second one II ? Lab note: record the label of whichever item you select.
Data returned: II

[I] CC(C(N)=O)N(c1ccc(O)cc1)c1nc(N)c(C(=O)c2ccc(OC(F)F)cc2)s1 (single isomer, unassigned) [Example 291]
[II] COc1ccc(C(=O)c2sc(N(c3ccc(F)c(Cl)c3)C(C)C(N)=O)nc2N)cc1 (single isomer, unassigned) [Example 161.1]
[III] CC(C(N)=O)N(c1ccc(F)cc1)c1nc(N)c(C(=O)c2ccc(N3CC4CCC(C4)C3)nc2)s1 (racemic) [Example 280]
Data request: Would you mind ranking these molecules by ascending pIC50? Thanks in advance for listing the labels in the requested order.
Data returned: I, III, II

[I] Cc1cccc(N(c2nc(N)c(C(=O)c3ccccc3)s2)C(C)C(N)=O)c1 (racemic) [Example 76]
[II] CC(C(N)=O)N(c1ccc(F)c(F)c1)c1nc(N)c(C(=O)c2ccc(C(F)(F)F)nc2)s1 (single isomer, unassigned) [Example 53.2]
Data request: // compare measured pIC50, left I , right II , return larger Choose, then provide that item's label.
Data returned: I

[A] COc1ccc(N(c2nc(N)c(C(=O)c3ccccc3)s2)C(C)C(N)=O)c(C)c1 (racemic) [Example 1]
[B] C[C@H](C(N)=O)N(c1ccc(F)c(F)c1)c1nc(N)c(C(=O)c2ccc(OC(F)F)cc2)s1 [Example 49.2]
Data request: Which of these two has the smaller recorded pIC50: A or B ? Indicate which entry you chose by stating its label.
Data returned: A

---

System: human DGKζ (Homo sapiens (Human), UniProt Q13574)
Protocol summary: Human DGKζ kinase activity inhibition assay (ADP-Glo)
Format: biochemical
Conditions used: in vitro human DGKζ kinase activity inhibition assay; read-out: IC50
pIC50: −log10 of the molar value.
Assay endpoint: pIC50

Here's what some known entries look like.
CC(C(N)=O)N(c1ccc(OCc2ccccc2)cc1)c1nc(N)c(C(=O)c2ccccc2)s1 (racemic) = 6.40
CC(C(N)=O)N(c1ccc(F)cc1)c1nc(N)c(C(=O)c2ccc(OCC(=O)NCc3ccc(F)cc3)cc2)s1 (racemic) = 7.61
CC(C(N)=O)N(c1ccc(F)cc1)c1nc(N)c(C(=O)c2ccc(N(C)C)cc2)s1 (racemic) = 7.21
CC1CCN(c2ccc(C(=O)c3sc(N(c4ccc(F)cc4)C(C)C(N)=O)nc3N)cn2)CC1 (racemic) = 7.54
CC(C(N)=O)N(c1ccc(Cl)c(F)c1)c1nc(N)c(C(=O)c2ccc(C(=O)NCCOC(C)(C)C)cc2)s1 (racemic) = 7.74
CC(C(N)=O)N(c1ccc(F)cc1)c1nc(N)c(C(=O)c2ccc(C(F)(F)F)nc2)s1 (racemic) [Example 29] = 7.23
CC(C(N)=O)N(c1ccc(C(F)F)cc1)c1nc(N)c(C(=O)c2ccc(OC(F)F)cc2)s1 (racemic) = 7.66
CC(C(N)=O)N(c1ccc(F)c(F)c1)c1nc(N)c(C(=O)c2ccc(OCc3ccccc3)cc2)s1 (single isomer, unassigned) [Example 165.1] = 8.70
CC(C(N)=O)N(c1ccc(F)cc1)c1nc(N)c(C(=O)c2ccc(C(=O)NC3CCCCC3)cc2)s1 (racemic) = 7.54
CC(C(N)=O)N(c1nc(N)c(C(=O)c2ccccc2)s1)c1ccc(Cl)cc1F (racemic) = 7.24

[I] CC(C(N)=O)N(c1nc(N)c(C(=O)c2ccccc2)s1)c1ccccc1F (racemic) [Example 75]
[II] CNC(=O)c1ccc(C(=O)c2sc(N(c3ccc(F)cc3)C(C)C(N)=O)nc2N)cc1 (racemic)
Data request: Lab note: check whether I or II has the lower measured pIC50. // respond with label for picked entry
Data returned: I

[1] CC(C(N)=O)N(c1ccc(F)cc1)c1nc(N)c(C(=O)c2ccc(Cl)c(C(F)(F)F)c2)s1 (racemic)
[2] CC(C(N)=O)N(c1ccc(F)cc1)c1nc(N)c(C(=O)c2ccc(C(F)F)nc2)s1 (racemic)
Data request: Just tell me: smaller pIC50 value, 1 or 2 ? Your answer should be the label of the entry you select.
Data returned: 1
(1: 6.37, 2: 6.67)

---

System: human DGKζ (Homo sapiens (Human))
Protocol summary: Human DGKζ kinase activity inhibition assay (ADP-Glo)
Format: biochemical
Conditions used: in vitro human DGKζ kinase activity inhibition assay; read-out: IC50
Assay endpoint: IC50 (nM)

COc1ccc(C(=O)c2sc(N(c3ccc(F)c(F)c3)C(C)C(N)=O)nc2N)cn1 (racemic) [Example 52] = 99.2
CC(C(N)=O)N(c1ccc(F)c(F)c1)c1nc(N)c(C(=O)c2ccc(OCc3ccccc3)cc2)s1 (racemic) [Example 165] = 3
CC(C(N)=O)N(c1ccc(OC(F)(F)F)cc1)c1nc(N)c(C(=O)c2ccc(F)cc2)s1 (single isomer, unassigned) [Example 27.2] = 43.6
CC(C(N)=O)N(c1nc(N)c(C(=O)c2ccc(OC(F)F)cc2)s1)c1ccc(Cl)cc1F (single isomer, unassigned) [Example 46.2] = 5.69
CC(C(N)=O)N(c1ccc(Cl)c(F)c1)c1nc(N)c(C(=O)c2ccc(C(=O)NCCOC(F)(F)F)cc2)s1 (racemic) = 12
CC(C(N)=O)N(c1ccc(F)cc1)c1nc(N)c(C(=O)c2ccc(OCCO)cc2)s1 (racemic) = 282
CC(C(N)=O)N(c1ccc(OC(F)F)nc1)c1nc(N)c(C(=O)c2ccc(Cl)cc2)s1 (racemic) = 59
CC(C(N)=O)N(c1ccc(F)cc1)c1nc(N)c(C(=O)c2cccc(C#N)c2)s1 (racemic) = 364

[A] CC(C(N)=O)N(c1ccc2c(c1)OC(F)(F)O2)c1nc(N)c(C(=O)c2ccccc2)s1 (racemic)
[B] CC(C(N)=O)N(c1nc(N)c(C(=O)c2ccccc2)s1)c1ccc(F)cc1Br (racemic)
Data request: For this pair, A and B , which shows a numerically higher IC50? # respond with the chosen item's label
Data returned: B
(B: 757 nM, A: 90 nM)
